target: KasQ Q95E (Streptomyces kasugaensis, UniProt A0A0K1H2R6, Q95E); assay: biochemical
Sequence (A0A0K1H2R6 entry or part of it Q95E): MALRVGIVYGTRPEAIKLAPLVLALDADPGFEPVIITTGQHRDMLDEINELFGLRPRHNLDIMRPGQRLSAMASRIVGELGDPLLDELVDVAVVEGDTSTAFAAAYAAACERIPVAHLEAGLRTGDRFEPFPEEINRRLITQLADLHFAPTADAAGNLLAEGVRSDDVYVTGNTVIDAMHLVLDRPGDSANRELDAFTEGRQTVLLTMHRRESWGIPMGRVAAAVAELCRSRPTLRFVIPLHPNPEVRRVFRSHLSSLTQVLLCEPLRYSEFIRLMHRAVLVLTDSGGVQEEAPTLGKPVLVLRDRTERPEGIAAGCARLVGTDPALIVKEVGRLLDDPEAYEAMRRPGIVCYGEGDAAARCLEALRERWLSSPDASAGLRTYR
Assay Endpoint: pKd
A value of pKd is the negative decimal logarithm of a concentration given in moles per litre.

| Compound | System Tested | pKd |
| --- | --- | --- |
| O=C(O)[C@H]1O[C@H](OP(=O)(O)OP(=O)(O)OC[C@H]2O[C@@H](n3ccc(=O)[nH]c3=O)[C@H](O)[C@@H]2O)[C@H](O)[C@@H](O)[C@@H]1O | KasQ Q95E (Streptomyces kasugaensis, UniProt A0A0K1H2R6, Q95E) | 4.93 |

Now turn to the next compound.
Query: For CC(=O)NC1C(OP(=O)(O)OP(=O)(O)OCC2OC(n3ccc(=O)[nH]c3=O)C(O)C2O)OC(CO)C(O)C1O (centres unmarked) , write its pKd.
Reply: 4.85
